Kindly supply the reported mass density values for the records listed here.
- study conditions: 298.15 K; 101.33 kPa; Liquid; Pycnometric method
I only need the number, in kg/m3, no unit after it.

Item: CCCCCCC | mass density: 679.5

Item: COC(C)(C)C | mass density: 740.6

Item: CO | mass density: 786.8

Item: CC1CCCCC1 | mass density: 765.2
